Numbers sourced from paper PMC3400893.

- measurement_notes: 28-day study: plasma LX4211 pharmacokinetics
- Assay type: in vivo, human
- study_conditions: both, human, plasma, oral, tmax, individual values, the two dose groups
value_kind: Tmax

Query: For CCOc1ccc(Cc2cc([C@@H]3O[C@H](SC)[C@@H](O)[C@H](O)[C@H]3O)ccc2Cl)cc1 [LX4211] , write its Tmax.
Result: 0.48 to 2.02 h

---

- measurement_notes: 28-day study: plasma LX4211 pharmacokinetics
- Format: in vivo, human
- study_conditions: both, human, plasma, oral, Median tmax, days 14 and 28, the two dose groups
value_kind: Tmax

Query: For CCOc1ccc(Cc2cc([C@@H]3O[C@H](SC)[C@@H](O)[C@H](O)[C@H]3O)ccc2Cl)cc1 , write its Tmax.
Result: 1 to 1.5 h
